Biological target: T1, CadC1-107 (DBD) (Escherichia coli, UniProt P23890 1-107)
T1 sequence: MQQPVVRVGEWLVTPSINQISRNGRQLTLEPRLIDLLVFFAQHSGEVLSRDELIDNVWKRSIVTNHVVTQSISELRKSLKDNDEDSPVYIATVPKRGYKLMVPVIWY
Test: NMR titration; 1:1 model; EMSA/NMR/ITC: 20 mM BisTris, 150 mM NaCl, pH 6.5, RT (NMR 10% D2O, 298 K; imino spectra 283 K); SPR: 10 mM HEPES pH 7.4, 150 mM NaCl, 3 mM EDTA, 0.05% P20, 25 C
Conditions: protein: recombinant; tags: His6-thioredoxin removed by TEV; blunt
parameter.measured: pKd
Note on pKd: it is the negative log10 of concentration, concentration in mol/L.

Endpoint output: pKd of Cad1 17-mer (dsDNA) DNA 1: TAAACATTAAATGTTTA DNA 2: TAAACATTTAATGTTTA . Value?
4.17
